Property: self-splicing fitness (ln); scope: individual sequences
test_name: self-splicing fitness, log relative to wild type (ln ratio); higher = more splicing; Tetrahymena group I intron in knt gene, E. coli kanamycin selection, DiMSum; sequences stand for … in CUCUCU…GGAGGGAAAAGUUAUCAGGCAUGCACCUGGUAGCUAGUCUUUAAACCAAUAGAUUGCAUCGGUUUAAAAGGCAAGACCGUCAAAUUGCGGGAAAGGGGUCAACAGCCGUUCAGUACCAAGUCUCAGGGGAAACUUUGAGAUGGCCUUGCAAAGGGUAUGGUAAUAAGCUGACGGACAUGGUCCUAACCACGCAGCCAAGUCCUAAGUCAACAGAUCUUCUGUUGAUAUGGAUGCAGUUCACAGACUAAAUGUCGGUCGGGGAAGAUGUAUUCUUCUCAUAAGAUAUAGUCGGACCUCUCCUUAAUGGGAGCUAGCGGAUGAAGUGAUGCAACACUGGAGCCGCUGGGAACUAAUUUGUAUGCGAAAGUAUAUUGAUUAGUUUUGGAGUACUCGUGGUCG;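 note: selection with 25 µg/mL kanamycin versus none on LB agar overnight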
applied_conditions: 37 °C
Please respond with just the number, no unit label.

Use the examples below as a reference point.
| record_sequence | self-splicing fitness (ln) |
| --- | --- |
| AGCAAGCAAUAUUACGCAUU | -1.45 |
| ACUGAGCAAUAUUACGACUG | -1.68 |
| UAAGAGCAAUAUUACGCGUC | -2.29 |

Could you now consider this next sequence?
Input: Can you look up the measured self-splicing fitness (ln) of UCAAAGCAAUAUUACGGCUU for me?
Output: -2.32
